src = patent US7196085B2

Each item that follows carries a reported melting point.

- molecule: "CCC/C=C/CC1CC(=O)N(c2cc(Cc3n[nH]c(=O)c4ccccc34)ccc2F)C1=O (stereo not shown)"
  melting point: "146 to 149 °C"
- molecule: "O=C1CC(c2ccccc2)C(=O)N1c1cc(Cc2n[nH]c(=O)c3ccccc23)ccc1Cl (stereo not shown)"
  melting point: "131 to 135 °C"
- molecule: "O=C(N[C@H]1CC(=O)N(c2cc(Cc3n[nH]c(=O)c4ccccc34)ccc2F)C1=O)OCc1ccccc1"
  melting point: "121 to 127 °C"
- molecule: "O=C1CC2(CCCC2)C(=O)N1c1cc(Cc2n[nH]c(=O)c3ccccc23)ccc1F"
  melting point: "215 to 220 °C"
- molecule: "O=C1C2CC2C(=O)N1c1cc(Cc2n[nH]c(=O)c3ccccc23)ccc1Cl (stereo not shown)"
  melting point: "229 to 230 °C"
- molecule: "CCCCCC/C=C/CC1CC(=O)N(c2cc(Cc3n[nH]c(=O)c4ccccc34)ccc2F)C1=O (stereo not shown)"
  melting point: "146 to 149 °C"
- molecule: "CCCCC/C=C/CC1CC(=O)N(c2cc(Cc3n[nH]c(=O)c4ccccc34)ccc2F)C1=O (stereo not shown)"
  melting point: "138 to 141 °C"
